# Test system: DU-145
# Assay Comment: Antiproliferative activity was evaluated against human prostate DU-145 cancer cell lines using the sulforhodamine B ([…]) assay
# Format: functional, cell-based
Measurement Kind: pIC50
The meaning of pIC50 here: minus log10 of the concentration in molar units.

Request: Would you please give the reported pIC50 of CCCCCCCCCCCCCCCCCCNCCN1CCSC1c1ccccc1 (stereo unspecified) with DU-145?
Result: 4.80
